// values below are reported solubility
# Assay Remarks: Solubility studies (HPLC-UV/ESI-MS; kinetic solubility)
# Format: physicochemical
# Run Conditions: water-methanol (1:1), aqueous with cosolvent or surfactant or cyclodextrin, thermodynamic from solid, method 2: HPLC/ESI-MS; read-out: Solubility in 50% methanol logS
Hi, when you answer, please include the unit after the number. Thanks!

[
  {
    "Mol": "Cn1ncc2cc(C(=O)Nc3ccc(F)c(F)c3)ccc21",
    "solubility": "2140 µM"
  },
  {
    "Mol": "Cn1ncc2cc(C(=O)Nc3ccc(F)c(Cl)c3)ccc21",
    "solubility": "2040 µM"
  }
]

// switching to the query molecule
Input line: I'd like to know its solubility. The molecule in question is Cn1ncc2cc(C(=O)Nc3ccc(Cl)c(Cl)c3)ccc21
Output line: 447 µM

---

# Assay Remarks: Solubility studies (HPLC-UV/ESI-MS; kinetic solubility)
# Format: physicochemical
# Run Conditions: pure water (Purelab flex), water, thermodynamic from solid, method 2: HPLC/ESI-MS; read-out: Solubility in water Sw
// values below are reported solubility

[
  {
    "Mol": "Cn1ncc2cc(C(=O)Nc3ccc(F)c(Cl)c3)ccc21",
    "Measurement Label": "solubility",
    "Result": "136 µM"
  }
]

Input line: I'd like to know its solubility. The compound in question is Cn1ncc2cc(C(=O)Nc3ccc(F)c(F)c3)ccc21
Output line: 214 µM

---

# Assay Remarks: PAMPA-BBB permeability assay
# Run Conditions: PAMPA, pH 7.4
Measurement Label: Papp at 4 h (×10⁻⁶ cm/s)
Kindly answer with a numeric value in ×10⁻⁶ cm/s, unit omitted.

Input line: I'd like to know its Papp at 4 h. The compound in question is CC(=O)[C@H]1CC[C@H]2[C@@H]3CCC4=CC(=O)CC[C@]4(C)[C@H]3CC[C@]12C [Progesterone, reference compound]
Output line: 55.2

---

# Assay Remarks: PAMPA-BBB permeability assay
# Run Conditions: PAMPA, pH 7.4
Measurement Label: Papp at 4 h, 10 µM (×10⁻⁶ cm/s)
Kindly answer with a numeric value in ×10⁻⁶ cm/s, unit omitted.

Examples from the recorded data:
[
  {
    "Compound": "Cn1ncc2cc(C(=O)Nc3ccc(F)c(F)c3)ccc21 [NTZ-1471]",
    "Quantity Unit": "×10⁻⁶ cm/s",
    "Papp at 4 h, 10 µM": 148
  },
  {
    "Compound": "Cn1ncc2cc(C(=O)Nc3ccc(F)c(Cl)c3)ccc21 [NTZ-1441]",
    "Quantity Unit": "×10⁻⁶ cm/s",
    "Papp at 4 h, 10 µM": 144
  }
]

// switching to the query compound
Input line: I'd like to know its Papp at 4 h, 10 µM. The compound in question is Cn1ncc2cc(C(=O)Nc3ccc(Cl)c(Cl)c3)ccc21 [NTZ-1091]
Output line: 118

---

// values below are reported solubility
# Assay Remarks: Solubility studies (HPLC-UV/ESI-MS; kinetic solubility)
# Format: physicochemical
# Run Conditions: pure water (Purelab flex), water, thermodynamic from solid, method 1: HPLC-UV (DAD); read-out: Solubility in water logSw
Kindly answer with a numeric value in µM, unit omitted.

Examples from the recorded data:
[
  {
    "Compound": "Cn1ncc2cc(C(=O)Nc3ccc(Cl)c(Cl)c3)ccc21 [NTZ-1091]",
    "Measurement Label": "solubility",
    "Quantity Unit": "µM",
    "Quantitative Readout": 2.34
  },
  {
    "Compound": "Cn1ncc2cc(C(=O)Nc3ccc(F)c(Cl)c3)ccc21 [NTZ-1441]",
    "Measurement Label": "solubility",
    "Quantity Unit": "µM",
    "Quantitative Readout": 34.7
  }
]

// switching to the query compound
Input line: I'd like to know its solubility. The compound in question is Cn1ncc2cc(C(=O)Nc3ccc(F)c(F)c3)ccc21 [NTZ-1471]
Output line: 38.9

---

# Assay Remarks: Solubility studies (HPLC-UV/ESI-MS; kinetic solubility)
# Assay type: physicochemical
# Run Conditions: 60 mM phosphate buffer or pure water, pH 7.4, aqueous buffer, measured; solubility in mol/L at pH 7.4 in 60 mM phosphate buffer or pure water at rt; read-out: logS7.4
Measurement Label: solubility

[
  {
    "Mol": "Cn1ncc2cc(C(=O)Nc3ccc(F)c(Cl)c3)ccc21",
    "solubility": "> 100 µM"
  }
]

// switching to the query compound
Input line: I'd like to know its solubility. The compound in question is Cn1ncc2cc(C(=O)Nc3ccc(F)c(F)c3)ccc21
Output line: > 100 µM

---

# Assay Remarks: Solubility studies (HPLC-UV/ESI-MS; kinetic solubility)
# Format: physicochemical
# Run Conditions: pure water (Purelab flex), water, thermodynamic from solid, method 2: HPLC/ESI-MS; read-out: Solubility in water logSw
// values below are reported solubility
Hi, when you answer, please include the unit after the number. Thanks!

Input line: I'd like to know its solubility. The molecule in question is Cn1ncc2cc(C(=O)Nc3ccc(F)c(F)c3)ccc21
Output line: 214 µM

Input line: What do we get for Cn1ncc2cc(C(=O)Nc3ccc(F)c(Cl)c3)ccc21 ?
Output line: 135 µM

Input line: What do we get for Cn1ncc2cc(C(=O)Nc3ccc(Cl)c(Cl)c3)ccc21 ?
Output line: 17.8 µM

---

# Assay Remarks: Solubility studies (HPLC-UV/ESI-MS; kinetic solubility)
# Assay type: physicochemical
# Run Conditions: measured; solubility in mol/L at pH 7.4 in 60 mM phosphate buffer or pure water at rt
Measurement Label: logS7.4
# respond with the number and nothing more

Examples from the recorded data:
[
  {
    "Mol": "Cn1ncc2cc(C(=O)Nc3ccc(F)c(Cl)c3)ccc21",
    "logS7.4": "−3.87"
  },
  {
    "Mol": "O=C(Nc1ccc(F)c(F)c1)c1ccc2[nH]ncc2c1",
    "logS7.4": "−4.22"
  },
  {
    "Mol": "Cn1ncc2cc(C(=O)Nc3ccc(F)c(F)c3)ccc21",
    "logS7.4": "−3.67"
  }
]

// switching to the query molecule
Input line: I'd like to know its logS7.4. The molecule in question is Cn1ncc2cc(C(=O)Nc3ccc(Cl)c(Cl)c3)ccc21
Output line: −4.75

---

# Target Or System: human recombinant MAO-A (Homo sapiens, UniProt P21397)
# Sequence (P21397 1-527): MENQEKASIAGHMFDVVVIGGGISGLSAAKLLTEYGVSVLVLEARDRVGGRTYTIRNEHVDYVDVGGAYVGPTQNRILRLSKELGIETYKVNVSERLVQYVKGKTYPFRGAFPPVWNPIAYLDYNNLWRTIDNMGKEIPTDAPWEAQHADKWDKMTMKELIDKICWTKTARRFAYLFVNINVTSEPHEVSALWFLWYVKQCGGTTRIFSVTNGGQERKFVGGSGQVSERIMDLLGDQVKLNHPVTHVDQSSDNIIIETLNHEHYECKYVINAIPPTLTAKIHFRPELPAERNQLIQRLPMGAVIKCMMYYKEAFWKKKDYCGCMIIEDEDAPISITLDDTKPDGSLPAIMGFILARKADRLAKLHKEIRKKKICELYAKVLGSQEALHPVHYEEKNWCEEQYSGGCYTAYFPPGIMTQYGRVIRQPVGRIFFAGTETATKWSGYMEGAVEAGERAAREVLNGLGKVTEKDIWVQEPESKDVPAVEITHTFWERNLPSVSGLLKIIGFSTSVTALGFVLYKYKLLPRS
Measurement Label: IC50

Input line: I'd like to know its IC50. The compound in question is O=C(Nc1ccc(Cl)c(Cl)c1)c1ccc2[nH]ncc2c1 [NTZ-1006]
Output line: > 10 µM

---

# Assay Remarks: Solubility studies (HPLC-UV/ESI-MS; kinetic solubility)
# Type: physicochemical
# Run Conditions: water-methanol (1:1), aqueous with cosolvent or surfactant or cyclodextrin, thermodynamic from solid, method 2: HPLC/ESI-MS; read-out: Solubility in 50% methanol S
Measurement Label: solubility (µg/mL)
Kindly answer with a numeric value in µg/mL, unit omitted.

[
  {
    "Mol": "Cn1ncc2cc(C(=O)Nc3ccc(F)c(F)c3)ccc21",
    "solubility [µg/mL]": 610
  }
]

// switching to the query compound
Input line: I'd like to know its solubility. The compound in question is Cn1ncc2cc(C(=O)Nc3ccc(F)c(Cl)c3)ccc21
Output line: 609
